Source of measurements: patent US20100144708A1

For reference, GI50 measured on ACHN (kidney cancer):

- molecule: "C=CCCCCCCCCC(=O)N1CC[N+](C)(C)CC1 [Example 45]"
  GI50: "> 10 µg/mL"

Req: Return reported GI50 for target or system ACHN (kidney cancer), item CCCCCCCCCS(=O)(=O)N1CC[N+](C)(CC)CC1 [Example 99] .
Resp: > 10 µg/mL

Req: Return reported GI50 for target or system ACHN (kidney cancer), item CCCCCCCC(=O)N1CC[N+](CC)(Cc2ccccc2)CC1.[Br-] [Example 7] .
Resp: > 10 µg/mL

Req: Return reported GI50 for target or system ACHN (kidney cancer), item C=CC[N+]1(CC)CCN(S(=O)(=O)CCCCCCCCCCCCCC)CC1 [Example 67] .
Resp: 0.51 µg/mL

Req: Return reported GI50 for target or system ACHN (kidney cancer), item CCCCCCCCCCCCCCCCCC(=O)N1CCC[N+](C)(C)CC1 [Example 129] .
Resp: 0.57 µg/mL

Req: Return reported GI50 for target or system ACHN (kidney cancer), item CCCCCCCCCCCCS(=O)(=O)N1CC[N+](C)(Cc2ccc(C)cc2)CC1 [Example 90] .
Resp: 3.22 µg/mL

Req: Return reported GI50 for target or system ACHN (kidney cancer), item CCCCCCCCCC(=O)N1CC[N+](C)(Cc2ccccc2)CC1 [Example 8] .
Resp: > 10 µg/mL

Req: Return reported GI50 for target or system ACHN (kidney cancer), item C=CC[N+]1(C)CCCN(C(=O)CCCCCCCCCCCCC)CC1 (stereo not drawn) [Example 127] .
Resp: 0.44 µg/mL

----------
For reference, GI50 measured on ACHN (kidney cancer):

Examples with their reported GI50 follow.
- molecule: "CCCCCCCCCS(=O)(=O)N1CC[N+](C)(C)CC1 [Example 102]"
  target or system: "ACHN (kidney cancer)"
  GI50: "> 10 µg/mL"
- molecule: "CCCCCCCCCCCCCC(=O)N1CC[N+](CC)(Cc2ccccc2)CC1 [Example 15]"
  target or system: "ACHN (kidney cancer)"
  GI50: "> 10 µg/mL"

Req: Return reported GI50 for target or system ACHN (kidney cancer), item C=CC[N+]1(C)CCN(C(=O)CCCCCCC)CC1.[Br-] [Example 4] .
Resp: > 10 µg/mL

Req: Return reported GI50 for target or system ACHN (kidney cancer), item CCCCCCCCCCCCCCS(=O)(=O)N1CC[N+](CC)(Cc2ccc(F)cc2)CC1 [Example 68] .
Resp: 1.19 µg/mL

Req: Return reported GI50 for target or system ACHN (kidney cancer), item C=CC[N+]1(C)CCN(S(=O)(=O)CCCCCCCCCCCCCCCCCC)CC1 [Example 74] .
Resp: 1.25 µg/mL

Req: Return reported GI50 for target or system ACHN (kidney cancer), item C=CCCC[N+]1(C)CCN(C(=O)CCCCCCCCCCCCCCC)CC1.[Br-] [Example 19] .
Resp: 1.69 µg/mL
